# Tested on: Ramos cells
# PROTOCOL NOTES: early O2− (ROS) response, 1 h
# Assay type: cell-based, human
# APPLIED CONDITIONS: Homo sapiens, Ramos, 1 h, read-out: ROS EC50 (μM), Ramos cells
OBSERVATION TYPE: EC50 (µM)
Numbers only, in µM.

Record CN1C(=O)C(Cc2ccc3ccccc3c2)N=C(c2ccc(O)cc2)c2cc(Cl)ccc21 (centres unmarked) , field EC50: 7.3

###

# TEST SYSTEM: mitochondrial F1F0-ATPase (Bos taurus, UniProt P13621+P32876)
# PROTOCOL NOTES: biochemical
# Set-up: species or system bovine
# APPLIED CONDITIONS: ED 50, inhibition of mitochondrial ATPase activity, bovine SMPs
pEC50: −log10 of the molar value.
OBSERVATION TYPE: pEC50

Record CN1C(=O)C(Cc2ccc3ccccc3c2)N=C(c2ccc(O)cc2)c2cc(Cl)ccc21 (stereo not shown) , field pEC50: ~5.30

###

Can you tell me EC50 for the items I'm about to list?
# TEST SYSTEM: mitochondrial F1F0-ATPase (Bos taurus, UniProt P13621+P32876)
# PROTOCOL NOTES: biochemical
# Set-up: species or system bovine
# APPLIED CONDITIONS: bovine SMPs; read-out: ATPase activity EC50 (μM), Synthesis

CCC(C)N(C)C(=O)c1cc2ccccc2c(-c2ccccc2Cl)n1 (centres unmarked) [PK11195] ... 33 µM

In the following, a different molecule is considered.
Record CN1C(=O)CN=C(c2ccc(Cl)cc2)c2cc(Cl)ccc21 [Compound 4-Cl-Dz, 4-chlorodiazepam] , field EC50: 210 µM

###

# System: neuroblastoma cell line SHEP-1
# PROTOCOL NOTES: antiproliferation, 72 h, 10% FBS
# Assay type: cell-based
# APPLIED CONDITIONS: SH-EP1, SHEP-1, 72 h, read-out: ED50 for antiproliferation
# Excerpt: Like most 1,4-benzodiazepines, Bz-423 binds strongly to bovine serum albumin (BSA), which reduces the effective concentration of drug free in solution. […] Since some benzodiazepines are known to have anti-proliferative properties, the effect of Bz-423 at concentrations <ED50 were carefully analyzed and observed that in addition to inducing apoptosis, Bz-423 prevented cell growth after 3 d in culture. […]
OBSERVATION TYPE: pEC50
Numbers only, as −log10 of the molar value.

Record CN1C(=O)C(Cc2ccc3ccccc3c2)N=C(c2ccc(O)cc2)c2cc(Cl)ccc21 (stereo not shown) , field pEC50: 4.80

###

# Tested on: ovarian cells with null p53 (SKOV3)
# PROTOCOL NOTES: antiproliferation, 72 h, 10% FBS
# Type: cell-based
# APPLIED CONDITIONS: Homo sapiens, SK-OV-3, SKOV3, 72 h, read-out: ED50 for antiproliferation
OBSERVATION TYPE: EC50 (µM)
Answers are plain numbers, in µM.

Record CN1C(=O)C(Cc2ccc3ccccc3c2)N=C(c2ccc(O)cc2)c2cc(Cl)ccc21 (stereo not shown) , field EC50: 18.2

###

# TEST SYSTEM: mitochondrial F1F0-ATPase (Bos taurus, UniProt P13621+P32876)
# PROTOCOL NOTES: biochemical
# Design: species or system bovine
# APPLIED CONDITIONS: read-out: KJ IC50 (syn)
Can you tell me pIC50 for the items I'm about to list?
Give bare numbers, as −log10 of the molar value.

# example entries with known answers
COc1ccc(S(=O)(=O)N2Cc3ccccc3N(Cc3c[nH]cn3)C(CCc3ccccc3)C2)cc1 (stereo not drawn) ... 5.12
Cc1[nH]cnc1CN1c2ccccc2CN(S(=O)(=O)c2ccc(C(C)(C)C)cc2)CC1CCc1ccccc1 (stereo not drawn) ... 4.82

In the following, a different compound is considered.
Record O=S(=O)(c1ccc(Cl)c(Cl)c1)N1Cc2ccccc2N(Cc2c[nH]cn2)C(CCc2ccccc2)C1 (stereo not drawn) , field pIC50: 5.30
